# ASSAY SYSTEM: GRIP2_6, Q9C0E4
# Sequence (Q9C0E4 648-740): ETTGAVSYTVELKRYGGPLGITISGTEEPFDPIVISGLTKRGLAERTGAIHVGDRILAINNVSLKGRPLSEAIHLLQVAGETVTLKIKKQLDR
# MEASUREMENT DESCRIPTION: holdup assay
# Design: key: below the threshold = too weak to quantify, mostly under pKd 3.1 to 4
# CONDITION INFO: plain residues with an end cap or a label only (N-terminal biotin on a linker: ado-ado)
ASSAY METRIC: pKd

Here is how some binders turned out for pKd.
                         binder  assay_metric                  val
0    AKADAQESRL [PLCB2, Q00722]           pKd  below the threshold
1  VYEVPVETKF [SLC26A3, P40879]           pKd  below the threshold
2    PEKVSNTTVV [IGSF5, Q9NSI5]           pKd  below the threshold
3    YAEKRMLTEV [KCNA6, P17658]           pKd  below the threshold
4  NISARRFTLC [FAM167B, Q9BTA0]           pKd                 3.57
5    LVEEEEPMNL [HDAC7, Q8WUI4]           pKd  below the threshold

pKd reading for NSTHNLKDYV [CLDN20, P56880] : below the threshold

The recorded pKd for EFKQTSSFLV [JAM1, Q9Y624] is 4.35

The binder identified as GVHSNDHSVV [LPAR1, Q92633] registered its pKd at below the threshold

binder SGDGKTSVWI [GJC1, P36383] , pKd observed: 3.55
